target: human TAS2R4 (Homo sapiens); construct: expressed in transfected cells; host or cells: HEK293T-Gα16gust44; test: Calcium imaging assay (FLIPR), HEK293T-Gα16gust44 cells transfected with human TAS2R4; type: cell-based; conditions: Time (s) 70.781 (TCA, TLCA: 70.782); note: test concentration or dose not given here
Sequence (Q9NYW5 whole entry): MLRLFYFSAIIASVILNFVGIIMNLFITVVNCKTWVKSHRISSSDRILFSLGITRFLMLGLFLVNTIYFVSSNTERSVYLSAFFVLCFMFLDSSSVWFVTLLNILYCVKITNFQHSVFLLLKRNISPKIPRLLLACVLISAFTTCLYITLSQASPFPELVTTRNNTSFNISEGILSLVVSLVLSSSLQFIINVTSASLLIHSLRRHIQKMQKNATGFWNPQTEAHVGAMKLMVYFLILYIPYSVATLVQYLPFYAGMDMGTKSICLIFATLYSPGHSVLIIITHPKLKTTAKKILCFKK
measuredProperty: RLU, fluorescence trace (RLU)
Dear colleague, please return just the value in RLU, with no unit written.

Prompt: Return value of RLU, fluorescence trace for input C[C@H](CCC(=O)O)[C@H]1CC[C@H]2[C@@H]3[C@H](O)C[C@@H]4C[C@H](O)CC[C@]4(C)[C@H]3C[C@H](O)[C@]12C , no commentary.
Response: 663.821

Further cases:
Prompt: Return value of RLU, fluorescence trace for input C[C@H](CCC(=O)NCCS(=O)(=O)O)[C@H]1CC[C@H]2[C@@H]3[C@H](O)C[C@@H]4C[C@H](O)CC[C@]4(C)[C@H]3C[C@H](O)[C@]12C , no commentary.
Response: 638.032

Prompt: Return value of RLU, fluorescence trace for input C[C@H](CCC(=O)O)[C@H]1CC[C@H]2[C@@H]3CC[C@@H]4C[C@H](O)CC[C@]4(C)[C@H]3C[C@H](O)[C@]12C , no commentary.
Response: 369.499
